Target: T1, human soluble urokinase plasminogen activator receptor (hsuPAR) (human, UniProt Q03405 23-303, limits assumed)
T1 construct: also called human suPAR; rhuPAR-His
T1 sequence (Q03405 23-303 limits assumed): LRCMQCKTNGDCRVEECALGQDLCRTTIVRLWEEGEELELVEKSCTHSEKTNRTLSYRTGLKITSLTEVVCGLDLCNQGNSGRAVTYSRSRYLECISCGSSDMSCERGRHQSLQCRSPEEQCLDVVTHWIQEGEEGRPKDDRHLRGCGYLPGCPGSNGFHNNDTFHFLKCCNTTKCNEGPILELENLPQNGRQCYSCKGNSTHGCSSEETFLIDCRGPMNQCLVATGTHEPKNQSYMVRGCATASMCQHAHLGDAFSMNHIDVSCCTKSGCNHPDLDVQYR
Assay: BLI (Octet) off-rate screen of scFv
experimentalEndpoint: koff (s⁻¹)
Numbers only, in s⁻¹.

Hey, can you go through the list below and give me koff for every item?
1. suPAR_DB01_G02 (scFv, V domains shown, Screened as scFv) VH: QVQLVQSGAEVKKPGASVKVSCKASGYSFTDYYMHWVRQAPGQGLEWMGWIDHENGNTIYAQKFQGRVTMTRDTSTSTVYMELSSLRSEDTAVYYCARGYDVDWFVYWGQGTLVTVSS VL: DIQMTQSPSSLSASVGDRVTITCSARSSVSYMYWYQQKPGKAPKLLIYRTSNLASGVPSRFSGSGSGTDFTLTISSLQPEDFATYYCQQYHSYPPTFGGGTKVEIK
2. suPAR_DB01_F11 (scFv, V domains shown, Screened as scFv) VH: QVQLVQSGAEVKKPGASVKVSCKASGYTFTSYYMHWVRQAPGQGLEWMGWIDHEGGNTSYAQKFQGRVTMTRDTSTSTVYMELSSLRSEDTAVYYCARGYDVDWFVYWGQGTLVTVSS VL: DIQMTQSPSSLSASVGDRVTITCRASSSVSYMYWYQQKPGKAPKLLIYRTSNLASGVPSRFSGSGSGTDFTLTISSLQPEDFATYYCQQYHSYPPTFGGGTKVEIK

1. 0.00245
2. 0.00293

# credit: patent US20250215104A1
